Data origin: patent US20200399712A1

- Tested on: HPV-16
- Method summary: qPCR sensitivity against HPV-HNSCC tumor samples diluted among 10 ng normal human DNA
- Condition context: tumor DNA dilution, fraction of 32 samples
Measurement kind: Sensitivity, 30 cells
The response must contain the number and no unit.

1) BR E1-6: HPV-16 E1 region primer/probe set, SEQ ID NO: 43-45 (nucleic acid, chemistry not given here) DNA 1: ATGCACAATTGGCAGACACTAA DNA 2: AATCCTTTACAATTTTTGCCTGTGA DNA 3: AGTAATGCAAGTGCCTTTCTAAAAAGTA | 0.844

Now look at this entry.
Q. What Sensitivity, 30 cells value was documented for this molecule, BR E1-4: HPV-16 E1 region primer/probe set, SEQ ID NO: 37-39 (nucleic acid, chemistry not given here) DNA 1: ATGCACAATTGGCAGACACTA DNA 2: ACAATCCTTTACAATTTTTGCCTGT DNA 3: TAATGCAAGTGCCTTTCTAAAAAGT ?
A. 0.875
